Item-by-item account of Maximum mean fluorescence intensity
- TGT: T1, human MSLN protein endogenously expressed on OVCAR3 tumor cells (human, UniProt Q13421 296-598)
- T1 construct: whole, on cells; Endogenous target on OVCAR3 cells; kept apart from the recombinant full-length construct; also called mesothelin
- METHOD: FACS on OVCAR3 cells
# output: bare number, no unit

Would you please look over these solved cases?
INSERT INTO assay_data (binder, endpoint_result) VALUES
  ('S009-F3.7.3 (antibody, human IgG1, kappa, V domains shown, human-murine chimeric antibody, human IgG1/kappa constant regions) VH: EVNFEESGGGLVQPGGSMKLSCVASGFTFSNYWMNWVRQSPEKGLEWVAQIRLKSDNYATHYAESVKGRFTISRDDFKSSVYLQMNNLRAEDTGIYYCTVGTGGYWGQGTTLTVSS VL: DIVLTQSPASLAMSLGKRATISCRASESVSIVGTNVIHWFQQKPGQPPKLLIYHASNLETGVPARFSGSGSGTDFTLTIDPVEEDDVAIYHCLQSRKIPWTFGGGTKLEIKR', 3700),
  ('S009-F3.16.1 (antibody, human IgG1, kappa, V domains shown, human-murine chimeric antibody, human IgG1/kappa constant regions) VH: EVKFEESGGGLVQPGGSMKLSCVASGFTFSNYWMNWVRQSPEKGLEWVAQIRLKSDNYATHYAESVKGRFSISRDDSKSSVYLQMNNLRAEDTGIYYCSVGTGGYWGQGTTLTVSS VL: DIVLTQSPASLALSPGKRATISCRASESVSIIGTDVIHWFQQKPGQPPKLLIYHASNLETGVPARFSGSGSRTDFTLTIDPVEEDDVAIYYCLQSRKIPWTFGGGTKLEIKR', 4190),
  ('S009-F3.80.22 (antibody, human IgG1, kappa, V domains shown, human-murine chimeric antibody, human IgG1/kappa constant regions) VH: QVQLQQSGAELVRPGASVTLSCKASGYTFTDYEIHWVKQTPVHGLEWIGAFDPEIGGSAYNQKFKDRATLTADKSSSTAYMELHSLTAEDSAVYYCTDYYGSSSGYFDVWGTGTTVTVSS VL: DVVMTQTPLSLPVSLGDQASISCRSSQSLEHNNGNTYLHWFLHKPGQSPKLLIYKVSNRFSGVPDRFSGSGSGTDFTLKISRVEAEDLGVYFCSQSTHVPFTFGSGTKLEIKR', 263),
  ('S009-F3.74.20 (antibody, human IgG1, kappa, V domains shown, human-murine chimeric antibody, human IgG1/kappa constant regions) VH: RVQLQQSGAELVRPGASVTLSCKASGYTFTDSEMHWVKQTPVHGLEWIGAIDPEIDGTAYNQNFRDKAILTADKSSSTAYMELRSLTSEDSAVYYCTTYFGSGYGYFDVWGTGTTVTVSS VL: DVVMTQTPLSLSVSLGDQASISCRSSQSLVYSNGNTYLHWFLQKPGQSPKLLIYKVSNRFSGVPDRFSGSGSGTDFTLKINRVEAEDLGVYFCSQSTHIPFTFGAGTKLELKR', 613),
  ('S009-F3.45.21 (antibody, human IgG1, kappa, V domains shown, human-murine chimeric antibody, human IgG1/kappa constant regions) VH: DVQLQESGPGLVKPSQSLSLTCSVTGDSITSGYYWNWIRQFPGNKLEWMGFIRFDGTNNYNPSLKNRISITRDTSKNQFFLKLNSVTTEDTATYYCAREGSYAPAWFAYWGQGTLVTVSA VL: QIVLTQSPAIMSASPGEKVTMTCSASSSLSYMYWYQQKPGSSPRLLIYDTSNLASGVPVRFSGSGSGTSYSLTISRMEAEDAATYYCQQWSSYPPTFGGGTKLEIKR', 9710);

### Prompt Look up Maximum mean fluorescence intensity for this binder: S009-F3.38.10 (antibody, human IgG1, kappa, V domains shown, human-murine chimeric antibody, human IgG1/kappa constant regions) VH: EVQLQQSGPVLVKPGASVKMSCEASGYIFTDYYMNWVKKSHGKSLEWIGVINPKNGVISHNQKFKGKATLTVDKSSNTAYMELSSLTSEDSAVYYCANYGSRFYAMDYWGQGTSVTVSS VL: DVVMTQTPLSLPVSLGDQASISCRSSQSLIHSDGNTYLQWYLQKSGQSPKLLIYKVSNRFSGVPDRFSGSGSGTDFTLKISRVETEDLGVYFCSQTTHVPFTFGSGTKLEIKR
### Response 2620

The reported measurements were obtained from patent US20250250357A1.
